A collection of molecules and their measured solubility
experiment_description: Solubility of the compound in water
Format: physicochemical
measurement_context: water; read-out: solubility

Fill in: solubility of C1CCNCC1.C1CCNCC1.COc1ccc(/C=C\c2cc(I)c(OC)c(OC)c2)cc1OP(=O)(O)O is ___ ≥ 4000 µg/mL

Kindly consider the entry below.
Name the reported solubility value associated with the molecule COC(=O)CN.COC(=O)CN.COc1ccc(/C=C\c2cc(I)c(OC)c(OC)c2)cc1OP(=O)(O)O ≥ 2000 µg/mL

====

Test system: HUVEC
experiment_description: Antiangiogenic activity in HUVEC assessed as reduction of cord length at 0.001 ug/ml after 24 hrs by matrigel assay relative to control
Assay type: functional
measurement_context: Homo sapiens
Activity calls are given as the source filed them. The calls are words filed in the database; no cut-off is given here.
Outcome field: choose from active, inactive

Use the examples below as a reference point.
Test call, this compound: COc1ccc(/C=C\c2cc(I)c(OC)c(OC)c2)cc1OP(=O)(O)O active

# fetch the recorded call for COc1ccc(/C=C\c2cc(I)c(OC)c(I)c2)cc1O here active

I'd appreciate the recorded outcome for COc1ccc(/C=C\c2cc(I)c(OC)c(I)c2)cc1OP(=O)(O)O from this test. inactive

Consider the record given below.
Could you kindly confirm the outcome this assay logged for COc1ccc(/C=C\c2cc(I)c(OC)c(OC)c2)cc1O ? active
